# target: Sodium channel protein type 9 subunit alpha (Homo sapiens, UniProt Q15858)
# Sequence (Q15858 whole entry): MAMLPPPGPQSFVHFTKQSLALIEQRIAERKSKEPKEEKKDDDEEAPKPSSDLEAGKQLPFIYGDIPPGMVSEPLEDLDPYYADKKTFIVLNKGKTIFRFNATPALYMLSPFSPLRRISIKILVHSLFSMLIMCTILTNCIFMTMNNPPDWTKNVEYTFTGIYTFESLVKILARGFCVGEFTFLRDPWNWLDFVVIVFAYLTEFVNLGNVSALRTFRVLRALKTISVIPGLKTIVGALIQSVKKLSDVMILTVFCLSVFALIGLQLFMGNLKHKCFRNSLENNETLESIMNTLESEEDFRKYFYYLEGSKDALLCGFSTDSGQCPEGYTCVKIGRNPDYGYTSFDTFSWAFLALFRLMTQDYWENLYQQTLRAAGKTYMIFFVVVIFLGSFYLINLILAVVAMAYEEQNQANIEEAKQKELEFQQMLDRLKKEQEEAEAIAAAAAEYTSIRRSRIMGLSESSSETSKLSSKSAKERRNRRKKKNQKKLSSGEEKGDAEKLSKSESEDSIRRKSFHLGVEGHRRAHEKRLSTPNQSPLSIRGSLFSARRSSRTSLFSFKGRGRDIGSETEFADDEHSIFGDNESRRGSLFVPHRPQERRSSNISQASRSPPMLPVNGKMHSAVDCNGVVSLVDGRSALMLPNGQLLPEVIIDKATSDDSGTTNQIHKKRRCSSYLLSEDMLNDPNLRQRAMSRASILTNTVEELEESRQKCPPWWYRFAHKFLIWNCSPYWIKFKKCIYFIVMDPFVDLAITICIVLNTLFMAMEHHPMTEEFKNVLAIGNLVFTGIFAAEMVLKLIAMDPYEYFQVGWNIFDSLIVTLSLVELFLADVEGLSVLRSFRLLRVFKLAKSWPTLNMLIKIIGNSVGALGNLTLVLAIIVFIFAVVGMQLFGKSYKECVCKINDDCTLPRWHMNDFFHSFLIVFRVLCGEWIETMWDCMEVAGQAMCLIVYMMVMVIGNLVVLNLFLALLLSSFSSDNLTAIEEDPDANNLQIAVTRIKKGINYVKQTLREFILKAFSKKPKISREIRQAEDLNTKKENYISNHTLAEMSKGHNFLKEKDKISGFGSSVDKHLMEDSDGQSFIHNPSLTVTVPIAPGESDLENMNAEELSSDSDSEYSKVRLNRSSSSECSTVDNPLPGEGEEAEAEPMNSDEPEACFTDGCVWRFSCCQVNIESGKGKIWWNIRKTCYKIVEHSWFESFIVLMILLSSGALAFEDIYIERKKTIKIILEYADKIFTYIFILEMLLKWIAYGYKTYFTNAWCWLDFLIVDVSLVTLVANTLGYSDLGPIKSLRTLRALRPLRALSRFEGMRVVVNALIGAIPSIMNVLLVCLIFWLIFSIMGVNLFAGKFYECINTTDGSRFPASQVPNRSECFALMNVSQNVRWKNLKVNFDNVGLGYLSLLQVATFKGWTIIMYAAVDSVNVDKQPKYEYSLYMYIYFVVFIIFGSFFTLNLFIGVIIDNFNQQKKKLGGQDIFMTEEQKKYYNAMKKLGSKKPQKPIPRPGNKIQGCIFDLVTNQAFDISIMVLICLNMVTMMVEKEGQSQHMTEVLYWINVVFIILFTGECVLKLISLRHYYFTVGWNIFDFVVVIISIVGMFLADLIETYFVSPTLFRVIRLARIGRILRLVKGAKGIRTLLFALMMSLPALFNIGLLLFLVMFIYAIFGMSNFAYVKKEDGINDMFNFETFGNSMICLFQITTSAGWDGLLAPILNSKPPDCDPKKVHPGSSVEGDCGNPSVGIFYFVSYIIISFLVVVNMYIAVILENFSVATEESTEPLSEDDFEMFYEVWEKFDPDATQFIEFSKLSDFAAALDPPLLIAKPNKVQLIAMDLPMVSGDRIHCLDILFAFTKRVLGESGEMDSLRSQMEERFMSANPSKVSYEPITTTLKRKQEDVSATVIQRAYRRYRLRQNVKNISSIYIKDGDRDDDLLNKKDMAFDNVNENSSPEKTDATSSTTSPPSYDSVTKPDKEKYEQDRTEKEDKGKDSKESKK
# methodSummary: Inhibition of human Nav 1.7 channel by voltage-ion-probe-reader
Answer each item with its documented pIC50.
Answers are plain numbers, as −log10 of the molar value.

> print(dat)
                                entrysmiles                                    target  testresult
1  NC(=O)c1cc(-c2cccc(-c3ccccc3OC(F)(F)F)c2)n[nH]1  Sodium channel protein type 9 subunit alpha (Homo sapiens, UniProt Q15858)        6.29
2  Cc1cc(C(N)=O)nn1-c1cccc(-c2ccccc2OCC(F)(F)F)c1  Sodium channel protein type 9 subunit alpha (Homo sapiens, UniProt Q15858)        6.73
3  Cc1cc(C(N)=O)nn1-c1ccc(OC(F)(F)F)c(-c2ccccc2OC(F)(F)F)c1  Sodium channel protein type 9 subunit alpha (Homo sapiens, UniProt Q15858)        6.43
4  CC(C)(C)c1cc(C(N)=O)nn1-c1cccc(-c2ccccc2OC(F)(F)F)c1  Sodium channel protein type 9 subunit alpha (Homo sapiens, UniProt Q15858)        5.86

[in] Supply pIC50 value. Item: Cc1cc(C(N)=O)nn1-c1cccc(-c2ccccc2Cl)c1
[out] 6.13

---

Answer each item with its documented Ki.
# target: Sodium channel protein type 9 subunit alpha (Homo sapiens)
# methodSummary: Inhibition of human Nav 1.7 channel by electrophysiology
One number for each entry, in nM.

Consider the worked cases shown below.
> print(dat)
                                entrysmiles  parameter  testresult
1     NC(=O)n1ccc(-c2cccc(-c3ccccc3Cl)c2)n1         Ki          18
2  NC(=O)c1nc(-c2cccc(-c3ccccc3OC(F)(F)F)c2)cs1         Ki          15
3     NC(=O)n1ccc(-c2ccc(-c3ccccc3Cl)cc2)n1         Ki         111

[in] Supply Ki value. Item: NC(=O)n1ccc(-c2ccc(Oc3ccc(Cl)cc3F)cc2)n1
[out] 13

---

# methodSummary: Volume of distribution in dog
# Format: ADME, organism-based, Canis lupus familiaris
# conditions: in vivo
parameter: Vd

[in] Supply Vd value. Item: Cc1cc(C(N)=O)nn1-c1cccc(-c2ccc(C(F)(F)F)cc2C(F)(F)F)c1
[out] 1.43 L/kg

---

# methodSummary: Oral bioavailability dog
# Assay type: ADME, organism-based, Canis lupus familiaris
# conditions: in vivo
parameter: bioavailability (%)
Numbers only, in %.

[in] Supply bioavailability value. Item: Cc1cc(C(N)=O)nn1-c1cccc(-c2ccc(C(F)(F)F)cc2C(F)(F)F)c1
[out] 50

---

# target: hERG (KCNH2) (Homo sapiens)
# Sequence (Q12809 whole entry): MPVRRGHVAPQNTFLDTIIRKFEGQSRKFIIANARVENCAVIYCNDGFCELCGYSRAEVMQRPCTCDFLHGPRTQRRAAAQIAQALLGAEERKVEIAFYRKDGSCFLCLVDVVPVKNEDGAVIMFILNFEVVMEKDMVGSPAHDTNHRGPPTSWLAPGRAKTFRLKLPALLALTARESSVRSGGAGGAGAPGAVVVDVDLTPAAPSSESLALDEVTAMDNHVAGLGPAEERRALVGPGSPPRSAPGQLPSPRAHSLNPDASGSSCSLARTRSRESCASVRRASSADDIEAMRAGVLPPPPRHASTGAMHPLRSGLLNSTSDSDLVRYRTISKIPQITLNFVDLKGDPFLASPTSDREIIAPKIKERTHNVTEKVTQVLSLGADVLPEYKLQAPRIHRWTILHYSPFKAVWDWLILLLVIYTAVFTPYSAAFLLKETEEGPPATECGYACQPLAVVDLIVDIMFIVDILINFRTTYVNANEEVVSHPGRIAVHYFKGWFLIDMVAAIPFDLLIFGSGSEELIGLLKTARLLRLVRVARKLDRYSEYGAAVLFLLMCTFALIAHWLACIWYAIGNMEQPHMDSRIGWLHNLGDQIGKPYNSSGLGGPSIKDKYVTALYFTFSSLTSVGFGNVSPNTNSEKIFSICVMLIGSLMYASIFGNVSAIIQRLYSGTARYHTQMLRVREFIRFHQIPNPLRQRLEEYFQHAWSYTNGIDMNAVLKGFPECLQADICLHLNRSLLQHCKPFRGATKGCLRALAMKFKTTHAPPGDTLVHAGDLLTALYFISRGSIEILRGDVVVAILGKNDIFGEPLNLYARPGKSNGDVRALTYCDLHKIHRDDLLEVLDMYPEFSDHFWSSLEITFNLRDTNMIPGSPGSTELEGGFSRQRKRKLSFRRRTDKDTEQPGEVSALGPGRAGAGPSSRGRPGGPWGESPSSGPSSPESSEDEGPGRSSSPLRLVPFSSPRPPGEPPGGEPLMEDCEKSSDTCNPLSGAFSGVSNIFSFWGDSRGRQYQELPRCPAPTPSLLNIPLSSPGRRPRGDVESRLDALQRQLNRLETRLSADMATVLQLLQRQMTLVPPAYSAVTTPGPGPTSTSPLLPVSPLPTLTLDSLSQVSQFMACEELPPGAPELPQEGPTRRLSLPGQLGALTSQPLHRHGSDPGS
# methodSummary: Displacement of [35S][…] from human ERG channel at 10 uM
parameter: inhibition at 10 µM (%)
Give bare numbers, in %.

Please give inhibition at 10 µM, item by item, for the list that follows.
1. Cc1cc(C(N)=O)nn1-c1cccc(-c2ccc(C(F)(F)F)cc2C(F)(F)F)c1
2. Cc1cc(C(N)=O)nn1-c1cccc(-c2ccccc2Cl)c1
3. Cc1cc(C(N)=O)nn1-c1cccc(-c2cc(F)ccc2C(F)(F)F)c1
4. Cc1cc(C(N)=O)nn1-c1cccc(-c2c(F)cccc2C(F)(F)F)c1
5. Cc1cc(C(N)=O)nn1-c1ccc(F)c(-c2ccccc2OC(F)(F)F)c1
6. Cc1cc(C(N)=O)nn1-c1cccc(-c2cccc(F)c2C(F)(F)F)c1

[out]
1: 53; 2: 8; 3: 41; 4: 74; 5: 66; 6: 73
